Biological target: GSK-3β (Homo sapiens, UniProt P49841)
Sequence (P49841 whole entry): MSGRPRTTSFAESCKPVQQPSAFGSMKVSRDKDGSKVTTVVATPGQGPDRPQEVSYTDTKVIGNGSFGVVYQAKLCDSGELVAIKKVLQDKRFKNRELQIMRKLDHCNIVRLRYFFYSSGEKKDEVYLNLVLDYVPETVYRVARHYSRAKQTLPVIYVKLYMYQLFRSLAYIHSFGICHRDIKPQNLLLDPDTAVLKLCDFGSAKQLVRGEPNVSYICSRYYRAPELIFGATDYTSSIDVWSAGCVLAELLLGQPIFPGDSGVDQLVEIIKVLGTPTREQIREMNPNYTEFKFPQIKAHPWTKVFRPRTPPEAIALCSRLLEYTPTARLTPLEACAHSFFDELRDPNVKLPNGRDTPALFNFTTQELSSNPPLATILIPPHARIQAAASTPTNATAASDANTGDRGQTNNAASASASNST
Experiment: GSK-3β kinase HotSpot assay (Reaction Biology)
Format: biochemical
Conditions: 25 μM compound, 10 μM ATP, duplicate, average; remaining kinase activity vs vehicle
Listed below: activity at 25 µM values for each entry.

Molecule	Target	Measured
O=C1NC(=O)/C(=C/c2cc(Cl)ccn2)N1	GSK-3β (Homo sapiens, UniProt P49841)	15.4%

In: Field request: activity at 25 µM | item: O=C1NC(=O)/C(=C/c2cccnc2)N1
Out: 71.8%

In: Okay, and O=C1NC(=O)/C(=C/c2ccc3ccccc3n2)N1 ?
Out: 32.9%

In: Okay, and Cc1cccnc1/C=C1\NC(=O)NC1=O ?
Out: 31.6%

In: Okay, and O=C1NC(=O)/C(=C/c2ccc3ncccc3c2)N1 ?
Out: 22.5%

In: Okay, and O=C1NC(=O)/C(=C/c2cccc(Br)n2)N1 ?
Out: 17%

====

Target: human matrix metalloproteinase-12 (Homo sapiens, UniProt P39900)
Sequence (P39900 106-470): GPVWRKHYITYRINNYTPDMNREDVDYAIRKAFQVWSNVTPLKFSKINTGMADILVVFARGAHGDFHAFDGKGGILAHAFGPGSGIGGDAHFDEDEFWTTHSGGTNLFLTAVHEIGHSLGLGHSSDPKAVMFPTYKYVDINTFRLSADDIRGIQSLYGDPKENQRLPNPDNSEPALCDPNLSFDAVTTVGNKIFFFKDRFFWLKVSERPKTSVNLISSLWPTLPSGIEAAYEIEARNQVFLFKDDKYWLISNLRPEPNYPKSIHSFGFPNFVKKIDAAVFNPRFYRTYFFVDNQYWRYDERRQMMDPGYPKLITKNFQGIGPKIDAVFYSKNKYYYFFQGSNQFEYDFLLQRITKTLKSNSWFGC
Test: Matrix metalloproteinase-12 fluorogenic substrate assay
Type: biochemical
Settings: 25 μM compound; read-out: MMP-12 % Activity @ 25 μM
Listed below: activity at 25 µM values for each entry.
Give a bare numeral; the unit % is implied.

Below, each entry is followed by its recorded activity at 25 µM result.
Molecule	Measured
O=C1NC(=O)/C(=C/c2ccc3ncccc3c2)N1	81.8
O=C1NC(=O)/C(=C/c2ncccc2Cl)N1	69.1
Cc1ccc(/C=C2\NC(=O)NC2=O)nc1	101
O=C1NC(=O)/C(=C/c2csc3ccccc23)N1	98.1
Cc1cccc(/C=C2\NC(=O)NC2=O)n1	86.4

In: Field request: activity at 25 µM | item: O=C1NC(=O)/C(=C/c2cc(Cl)ccn2)N1
Out: 73.9

In: Okay, and Cc1cccnc1/C=C1\NC(=O)NC1=O ?
Out: 108

In: Okay, and COc1cccc(/C=C2\NC(=O)NC2=O)n1 ?
Out: 87.5

In: Okay, and O=C1NC(=O)/C(=C/c2ccc3ccccc3n2)N1 ?
Out: 94.1

In: Okay, and O=C1NC(=O)/C(=C/c2cccnc2)N1 ?
Out: 84.2

In: Okay, and O=C1NC(=O)/C(=C/c2cccc(Br)n2)N1 ?
Out: 85.8

In: Okay, and Cc1ccnc(/C=C2\NC(=O)NC2=O)c1 ?
Out: 71.6

In: Okay, and O=C1NC(=O)/C(=C/c2ccc(Br)cn2)N1 ?
Out: 98.6

====

Measured Property: melting point

Below, each entry is followed by its recorded melting point result.
Molecule	melting point
Cc1ccc(/C=C2\NC(=O)NC2=O)nc1	> 250 °C
COc1cccc(/C=C2\NC(=O)NC2=O)n1	249 to 251 °C
Cc1cccnc1/C=C1\NC(=O)NC1=O	245 to 248 °C
O=C1NC(=O)/C(=C/c2csc3ccccc23)N1	> 250 °C
O=C1NC(=O)/C(=C/c2ccccn2)N1	231 to 233 °C
O=C1NC(=O)/C(=C/c2cccc(Br)n2)N1	> 250 °C

In: Field request: melting point | item: O=C1NC(=O)/C(=C/c2cccnc2)N1
Out: > 255 °C

In: Okay, and O=C1NC(=O)/C(=C/c2ccc3ncccc3c2)N1 ?
Out: > 250 °C

In: Okay, and O=C1NC(=O)/C(=C/c2ccc(Br)cn2)N1 ?
Out: > 255 °C

In: Okay, and O=C1NC(=O)/C(=C/c2ccc3ccccc3n2)N1 ?
Out: > 255 °C
